- Stated conditions: 333.15 K; Liquid
Endpoint name: vapor or sublimation pressure (kPa)
One number for each entry, in kPa.

Recorded vapor or sublimation pressure, per entry:
CC#N | 49.16
Cl/C=C\CCl [(Z)-1,3-dichloro-1-propene] | 22.61
C=CCCC=C | 103.15
CC(Cl)CCl (stereo unspecified) | 30.14
C=CCCl | 164.65

What measured vapor or sublimation pressure goes with CC(=O)OC(C)C [1-methylethyl ethanoate] ?
37.73

---

- Stated conditions: 373.1 K; Liquid
Endpoint name: vapor or sublimation pressure (kPa)
Numbers only, in kPa.

Some entries whose results are on file:
Oc1ccccc1 | 5.506
C=CCCC=C | 316.61
C=CCCl | 489.25

Consider the record given below.
Form field: reported vapor or sublimation pressure of CC(=O)c1ccccc1
3.573
